ASSAYED_TARGET: APOL1 (Homo sapiens, UniProt O14791)
ASSAY_SUMMARY: MultiTox-Fluor Multiplex Cytotoxicity Assay, tet-inducible APOL1 T-REx-HEK293 cells (G0, G1 or G2 clone not specified for Table 20)
CONDITION_DETAILS: tet-induced, 24 hours with compound, ratio of dead to live cells, read-out: IP50 (i.e., IC50 for cell proliferation)
READOUT_KIND: IC50

Observe how each entry below is paired with its result.
{"columns": ["COMPOUND", "IC50"],
 "data": [
  ["Cc1cc(CN2CCC3(CC2)OC(C(N)=O)c2ccc(Cl)cc23)ccn1 (centres unmarked)", "50 to 500 nM"],
  ["Cn1cc(CN2CCC3(CC2)NCc2ccc(Cl)cc23)cn1", "≥ 500 nM"],
  ["C[C@H]1C[C@@]2(CCN1Cc1cnn(CCS(C)(=O)=O)c1)OC[C@H](O)c1ccc(Cl)cc12", "≤ 50 nM"],
  ["Cc1cc(CN2CC[C@]3(C[C@@H]2C)OCCc2ccc(Cl)cc23)[nH]n1", "≤ 50 nM"],
  ["CS(=O)(=O)CCn1cc(CN2CCC3(CC2)OCCc2ccc(Cl)cc23)nn1", "≥ 500 nM"],
  ["CS(=O)(=O)CCn1cc(CN2CCC3(CC2)C(=O)N(Cc2ccccc2)c2ccc(OC(F)F)cc23)cn1", "≥ 500 nM"]
]}

In plain terms, CN1C(=O)C2(CCN(Cc3cnn(CC(O)C(F)(F)F)c3)CC2)c2cc(Cl)ccc21 (centres unmarked) has a documented IC50 of 50 to 500 nM

In plain terms, CCO/N=C(\C)c1ccc(CN2CCC3(CC2)C(=O)Nc2ccc(Cl)cc23)cn1 has a documented IC50 of 50 to 500 nM

In plain terms, CNC(=O)C1OC2(CCN(Cc3cnn(-c4ccccc4)c3)CC2)c2cc(C)ccc21 (centres unmarked) has a documented IC50 of ≤ 50 nM

In plain terms, COCCn1cc(CN2CCC3(CC2)C(=O)Nc2ccc(C)cc23)cn1 has a documented IC50 of ≥ 500 nM

In plain terms, NC(=O)C1OC2(CCN(Cc3ccc(S(N)(=O)=O)cc3F)CC2)c2cc(Cl)ccc21 (centres unmarked) has a documented IC50 of 50 to 500 nM
